Tested on: T-47D breast
Test: NCI-60 one-dose screen, 48 h
Conditions: 10 µM unless noted
About 83,000 compounds went through this panel and 20% of them were active in at least one assay; those are over-represented in the sample as a whole. Active and inactive are the calls of the source. The calls were made as follows: active = growth percent below 10; inactive = the rest.
Please reply with one of these outcomes: Y = active, N = inactive

Input line: Assay result, entry COc1ccc(-n2c(C)nc3c(c(C)nn3-c3ccccc3)c2=O)cc1 — outcome?
Output line: N

Input line: Assay result, entry O=C1/C(=C\c2cn(C(=O)c3ccc(Cl)cc3)c3ccccc23)c2ccccc2N1c1c(Cl)cccc1Cl — outcome?
Output line: N

Input line: Assay result, entry Cc1ccc2c(c1)O/C(=C\c1cccc(OCC(=O)c3ccccc3)c1)C2=O — outcome?
Output line: N

Input line: Assay result, entry O=C1Nc2ccccc2C12CC(c1ccc(Cl)cc1)=NN2 (stereo not given) — outcome?
Output line: N

Input line: Assay result, entry COc1cc(NC(N)=NCC(C)(C)COc2ccc(C(F)(F)F)cc2)cnc1C#N — outcome?
Output line: N

Input line: Assay result, entry Nc1cc(O)cc2cccnc12 — outcome?
Output line: N

Input line: Assay result, entry CS(=O)(=O)c1ccc(-c2cnc3ccc(-c4cccc(S(C)(=O)=O)c4)nn23)cc1 — outcome?
Output line: N

Input line: Assay result, entry CN1CCCCC1CCN1c2ccccc2Sc2ccc(Br)cc21 (stereo not given) — outcome?
Output line: N

Input line: Assay result, entry Brc1cccc(-c2cc(-c3ccc4c(c3)OCCO4)[nH]n2)c1 — outcome?
Output line: N

Input line: Assay result, entry CC(C)[C@@H]1CC[C@]2(C(=O)NCCCCN=C(N)N)CC[C@]3(C)[C@H](CC[C@@H]4[C@@]5(C)CCC(=O)C(C)(C)[C@@H]5CC[C@]43C)[C@@H]12 — outcome?
Output line: N

Input line: Assay result, entry N#Cc1c(N)nc(N)nc1Nc1ccc(Br)cc1 — outcome?
Output line: N

Input line: Assay result, entry CCCCCCCCOC(=O)CC[C@@H](C)[C@H]1CC[C@H]2[C@@H]3[C@H](OC(=O)CCN)C[C@@H]4C[C@H](OC(=O)CCN)CC[C@]4(C)[C@H]3C[C@H](OC(=O)CCN)[C@]12C — outcome?
Output line: N

Input line: Assay result, entry N=S(=O)(NC(=O)c1ccc(Cl)cc1Cl)c1ccc(Br)s1 (stereo not given) — outcome?
Output line: N

Input line: Assay result, entry CC(=O)C1=C(O)C=C2Oc3c(C(=O)/C=C/c4c(Cl)cccc4Cl)c(O)c(C)c(O)c3[C@]2(C)C1=O — outcome?
Output line: Y

Input line: Assay result, entry Cc1noc(C)c1-c1cc(O)cc(C(O)c2ccccc2)c1 (stereo not given) — outcome?
Output line: N

Input line: Assay result, entry CCCCCCCCCC(=O)Oc1ccc(/C(=C(/C)c2ccccc2)c2ccc(OCCN3CCCC3)cc2)cc1 — outcome?
Output line: Y

Input line: Assay result, entry CC(C)CC(CC1=CCC2CC1C2(C)C)C1=C(O)C(C)(C)C(=O)C(C)(C)C1=O (stereo not given) — outcome?
Output line: Y

Input line: Assay result, entry Cc1cc(Nc2nc(N3CCOCC3)nc3ccccc23)n[nH]1 — outcome?
Output line: N

Input line: Assay result, entry Cc1cc2cc3cc(C)c(N(C)C)cc3[n+](C)c2cc1N(C)C — outcome?
Output line: N

Input line: Assay result, entry NC1=CSC2=N/C(=C\c3ccc(Cl)cc3)C(=O)N12 — outcome?
Output line: N

* * *

Test system: EKVX NSCLC
Experiment: NCI-60 one-dose screen, 48 h (100 = growth as untreated, 0 = no growth, -100 = all killed)
Conditions: 10 µM unless noted
About 83,000 compounds went through this panel and 20% of them were active in at least one assay; those are over-represented in the sample as a whole. Active and inactive are the calls of the source. How the source made its calls: active means growth percent below 10; inactive means the rest.
Would you mind telling me the reported growth of each entry?

Input line: Could you tell me which growth is on file for Nc1cc2ccncc2c2ccccc12 ?
Output line: 60.4% (inactive)

Input line: Could you tell me which growth is on file for CSc1nc2sc3c(c2c(=O)n1-c1ccc(C(C)C)cc1)CCC(=O)C3 ?
Output line: 23.1% (inactive)

Input line: Could you tell me which growth is on file for COc1ccc(-c2csc(NC(=O)CN3CCN(c4cc5c(cc4F)c(=O)c(C(=O)O)cn5C4CC4)CC3)n2)cc1 ?
Output line: 26.2% (inactive)

Input line: Could you tell me which growth is on file for Cc1ccc2c(c1)C(=O)/C(=C/c1ccc(OCC(=O)c3ccccc3)cc1)O2 ?
Output line: 90.2% (inactive)

Input line: Could you tell me which growth is on file for CCOC(=O)CC(=O)c1c(C)cc(C)cc1C ?
Output line: 105% (inactive)

Input line: Could you tell me which growth is on file for CCOC(=O)Cc1cnn(C)c1NC(=O)c1ccc(Cl)cc1NC(C)=O ?
Output line: 76.3% (inactive)

Input line: Could you tell me which growth is on file for CN(C)c1ccc(/C=C(\C#N)c2nc3ccccc3s2)cc1 ?
Output line: 89.5% (inactive)

Input line: Could you tell me which growth is on file for O=C(Nc1nc(-c2ccccc2)cc(-c2ccc(Cl)cc2)n1)c1ccncc1 ?
Output line: 82.3% (inactive)

Input line: Could you tell me which growth is on file for C[C@H](CCC(=O)O)[C@H]1CC[C@H]2[C@@H]3CC[C@@H]4/C(=C\c5ccco5)C(=O)/C(=C\c5ccco5)C[C@]4(C)[C@H]3CC[C@]12C ?
Output line: 79.1% (inactive)

* * *

System: SK-MEL-5 melanoma
Assay: NCI-60 one-dose screen, 48 h
Settings: 10 µM unless noted
Compounds without any hit were thinned out: in the full panel of roughly 83,000, 20% have a hit. Calls of active or inactive are those of the source. How the source made its calls: active means growth percent below 10; inactive means the rest.
Please reply with one of these outcomes: active, inactive

Input line: Assay result, entry NC(N)=Nc1ccc(S(=O)(=O)O)cc1 — outcome?
Output line: inactive

Input line: Assay result, entry CCCCCCCCCCNC(=O)CCl — outcome?
Output line: inactive

Input line: Assay result, entry O=c1c2cccc3c(Nc4c(F)cccc4F)ccc(c32)c2nc3ccccc3n12 — outcome?
Output line: inactive

Input line: Assay result, entry CN1CCCCC1CCN1c2ccccc2Sc2ccc(Cl)cc21 (stereo unspecified) — outcome?
Output line: inactive

Input line: Assay result, entry CNC(=O)c1cc(Oc2ccc3nc(NC(=O)Nc4ccc(CN5CCOCC5)c(C(F)(F)F)c4)sc3c2)ccn1 — outcome?
Output line: active

Input line: Assay result, entry CCCCOc1ccc(NC(=O)n2nc(NC(C)=O)c3cc(NC(C)=O)ccc32)cc1 — outcome?
Output line: inactive

Input line: Assay result, entry O=C(O)c1c([N+](=O)[O-])cnc2ccccc12 — outcome?
Output line: inactive

Input line: Assay result, entry CC/C(Cc1ccccc1)=C(\c1ccc(OCCN2CCCC2)cc1)c1ccc(OC(C)=O)cc1 — outcome?
Output line: inactive

Input line: Assay result, entry COc1ccc2nc3cc(Cl)ccc3c(N3CCN(c4ccnc(N5CCN(C)CC5)n4)CC3)c2c1 — outcome?
Output line: inactive

Input line: Assay result, entry C[C@@H]1CCC2=C(CCC[C@]2(C)C(=O)O)[C@@]1(C)CCc1ccoc1 — outcome?
Output line: inactive

Input line: Assay result, entry CCOC(=O)CC(C)=N — outcome?
Output line: inactive

* * *

Would you mind telling me the reported growth of each entry?
Test system: UACC-62 melanoma
Assay: NCI-60 one-dose screen, 48 h (100 = growth as untreated, 0 = no growth, -100 = all killed)
Conditions: 10 µM unless noted
About 83,000 compounds went through this panel and 20% of them were active in at least one assay; those are over-represented in the sample as a whole.
Supply the numeric figure in %, leaving out any unit text.

Input line: Could you tell me which growth is on file for O=C(Nc1ccc(Nc2cc(Nc3ccccc3)ncn2)cc1)Nc1cc(C(F)(F)F)ccc1F ?
Output line: 65.8

Input line: Could you tell me which growth is on file for COc1ccc(CCN2CC=Cn3c2nc2ccccc2c3=O)cc1 ?
Output line: 31.8

Input line: Could you tell me which growth is on file for O=C(O)c1cccc2c1-c1ccccc1C2=O ?
Output line: 90.1

Input line: Could you tell me which growth is on file for COc1cnc2c(c1)C(=O)c1c-2n(CCCBr)c(=O)c2cc([N+](=O)[O-])ccc12 ?
Output line: -62.3

Input line: Could you tell me which growth is on file for O=C(CN1CCN(c2cc3c(cc2F)c(=O)c(C(=O)O)cn3C2CC2)CC1)Nc1cc(=O)[nH]c(=O)[nH]1 ?
Output line: 96

Input line: Could you tell me which growth is on file for CSc1nc2sc3c(c2c(=O)n1-c1ccc(C(C)C)cc1)CCC(=O)C3 ?
Output line: -20.8

Input line: Could you tell me which growth is on file for CS(=O)(CCCCN=C=S)=NC(=O)c1c(F)c(F)c(F)c(F)c1F (configuration not stated) ?
Output line: 88.7

Input line: Could you tell me which growth is on file for CNC(=O)c1cc(Oc2ccc3nc(NC(=O)Nc4ccc(N5CCC(N(C)C)CC5)cc4)sc3c2)ccn1 ?
Output line: 99.2

Input line: Could you tell me which growth is on file for CSc1ncnc2c1ncn2C1CCCO1 (configuration not stated) ?
Output line: 88.5

Input line: Could you tell me which growth is on file for CCN(CC)CCCC(C)Nc1ccnc2c(OC)cccc12 (configuration not stated) ?
Output line: 114

Input line: Could you tell me which growth is on file for OCC1C2C=CC(C2)C1CO (configuration not stated) ?
Output line: 107

Input line: Could you tell me which growth is on file for COc1ccc(C(=O)c2sc3nc(-c4ccccc4OC)ccc3c2N)cc1OC ?
Output line: 67.8

Input line: Could you tell me which growth is on file for COc1ccc2nc3cc(Cl)ccc3c(NCCNCC(O)CO)c2c1 (configuration not stated) ?
Output line: 11

Input line: Could you tell me which growth is on file for O=C1Nc2c(ccc(Cl)c2Cl)/C1=C/c1cc(Br)c(O)c(Br)c1 ?
Output line: 26.1

Input line: Could you tell me which growth is on file for CSc1ccc(N=C=C(c2ccccc2)c2ccccc2)cc1 ?
Output line: 83.1

Input line: Could you tell me which growth is on file for CC/C=C\C[C@H](O)C/C=C1/C(=O)C=C[C@@H]1C/C=C\CCCC(N)=O ?
Output line: -45.8

Input line: Could you tell me which growth is on file for CC1(C)CC(C(=O)OCCCCCCCCCCC[P+](c2ccccc2)(c2ccccc2)c2ccccc2)C(C)(C)N1O (configuration not stated) ?
Output line: -69.3

Input line: Could you tell me which growth is on file for CCOC(=O)c1c2c(n3ccc(NC(=O)CCN(CC)CC)cc13)C(=O)c1ncccc1C2=O ?
Output line: 50.8

Input line: Could you tell me which growth is on file for Nc1cccc(-c2nc3sccn3c2-c2ccnc(NCCCNS(=O)(=O)c3ccc(C(F)(F)F)cc3)n2)c1 ?
Output line: -33.3

Input line: Could you tell me which growth is on file for COc1ccc(C(=O)/C=C/c2cc3ccccc3[nH]c2=O)cc1 ?
Output line: 67.7

Input line: Could you tell me which growth is on file for Fc1ccc(Cc2ccc(F)cc2)cc1 ?
Output line: 101

Input line: Could you tell me which growth is on file for Oc1ccc(Nc2nccc(-c3ccc4ccccc4c3)n2)cc1 ?
Output line: 39.4

Input line: Could you tell me which growth is on file for COc1ccc(-c2cc(=O)[nH]c3c(OC)c4ccccc4c(OC)c23)cc1 ?
Output line: 21.1

Input line: Could you tell me which growth is on file for Cc1cc(Cl)ccc1Nc1nc(C(F)(F)F)ccc1C(=O)N/N=C/c1ccc(F)cc1 ?
Output line: 15.4

Input line: Could you tell me which growth is on file for CC1=C(NCCN2CCCC2)C(=O)c2c(OCc3cccc(Cl)c3)cccc2C1=O ?
Output line: 93.7

Input line: Could you tell me which growth is on file for CCOC(=O)c1cnc2ccc(OC)cc2c1Nc1cccc(S(=O)(=O)NC)c1 ?
Output line: 103

Input line: Could you tell me which growth is on file for C#Cc1nc2ccccc2c(=O)[nH]1 ?
Output line: -77.2
